Substrate: NC(=O)C[C@H](N)C(=O)O
Assay: purified protein
Type: biochemical, Escherichia coli
Details: 20 mM Tris-HCl pH 8.0, 20 °C, L-Asn 0-84 mM
REPORTED METRIC: Km (mM)
Please reply with the bare figure in mM and do not write the unit itself.

EcAIII (Escherichia coli K-12) (protein, untagged as described; EcAIII gene in pET11d, bacterial expression; precursor autoproteolytically matured to subunits alpha and beta from one gene, (alphabeta)2; purified by DEAE and SEC) chain 1: GKAVIAIHGGAGAISRAQMSLQQELRYIEALSAIVETGQKMLEAGESALDVVTEAVRLLEECPLFNAGIGAVFTRDETHELDACVMDGNTLKAGAVAGVSHLRNPVLAARLVMEQSPHVMMIGEGAENFAFARGMERVSPEIFSTSLRYEQLLAARKEGATVLDHSGAPLDEKQKMG chain 2: TVGAVALDLDGNLAAATSTGGMTNKLPGRVGDSPLVGAGCYANNASVAVSCTGTGEVFIRALAAYDIAALMDYGGLSLAEACERVVMEKLPALGGSGGLIAIDHEGNVALPFNTEGMYRAWGYAGDTPTTGIYREKGDTVATQ	22
EcAIII (Escherichia coli K-12; M200I) (protein, untagged as described; EcAIII gene in pET11d, bacterial expression; precursor autoproteolytically matured to subunits alpha and beta from one gene, (alphabeta)2; purified by DEAE and SEC) chain 1: GKAVIAIHGGAGAISRAQMSLQQELRYIEALSAIVETGQKMLEAGESALDVVTEAVRLLEECPLFNAGIGAVFTRDETHELDACVMDGNTLKAGAVAGVSHLRNPVLAARLVMEQSPHVMMIGEGAENFAFARGMERVSPEIFSTSLRYEQLLAARKEGATVLDHSGAPLDEKQKMG chain 2: TVGAVALDLDGNLAAATSTGGITNKLPGRVGDSPLVGAGCYANNASVAVSCTGTGEVFIRALAAYDIAALMDYGGLSLAEACERVVMEKLPALGGSGGLIAIDHEGNVALPFNTEGMYRAWGYAGDTPTTGIYREKGDTVATQ	35
EcAIII (Escherichia coli K-12; M200T) (protein, untagged as described; EcAIII gene in pET11d, bacterial expression; precursor autoproteolytically matured to subunits alpha and beta from one gene, (alphabeta)2; purified by DEAE and SEC) chain 1: GKAVIAIHGGAGAISRAQMSLQQELRYIEALSAIVETGQKMLEAGESALDVVTEAVRLLEECPLFNAGIGAVFTRDETHELDACVMDGNTLKAGAVAGVSHLRNPVLAARLVMEQSPHVMMIGEGAENFAFARGMERVSPEIFSTSLRYEQLLAARKEGATVLDHSGAPLDEKQKMG chain 2: TVGAVALDLDGNLAAATSTGGTTNKLPGRVGDSPLVGAGCYANNASVAVSCTGTGEVFIRALAAYDIAALMDYGGLSLAEACERVVMEKLPALGGSGGLIAIDHEGNVALPFNTEGMYRAWGYAGDTPTTGIYREKGDTVATQ	64
EcAIII (Escherichia coli K-12; M200W) (protein, untagged as described; EcAIII gene in pET11d, bacterial expression; precursor autoproteolytically matured to subunits alpha and beta from one gene, (alphabeta)2; purified by DEAE and SEC) chain 1: GKAVIAIHGGAGAISRAQMSLQQELRYIEALSAIVETGQKMLEAGESALDVVTEAVRLLEECPLFNAGIGAVFTRDETHELDACVMDGNTLKAGAVAGVSHLRNPVLAARLVMEQSPHVMMIGEGAENFAFARGMERVSPEIFSTSLRYEQLLAARKEGATVLDHSGAPLDEKQKMG chain 2: TVGAVALDLDGNLAAATSTGGWTNKLPGRVGDSPLVGAGCYANNASVAVSCTGTGEVFIRALAAYDIAALMDYGGLSLAEACERVVMEKLPALGGSGGLIAIDHEGNVALPFNTEGMYRAWGYAGDTPTTGIYREKGDTVATQ	36
EcAIII (Escherichia coli K-12; M200K) (protein, untagged as described; EcAIII gene in pET11d, bacterial expression; precursor autoproteolytically matured to subunits alpha and beta from one gene, (alphabeta)2; purified by DEAE and SEC) chain 1: GKAVIAIHGGAGAISRAQMSLQQELRYIEALSAIVETGQKMLEAGESALDVVTEAVRLLEECPLFNAGIGAVFTRDETHELDACVMDGNTLKAGAVAGVSHLRNPVLAARLVMEQSPHVMMIGEGAENFAFARGMERVSPEIFSTSLRYEQLLAARKEGATVLDHSGAPLDEKQKMG chain 2: TVGAVALDLDGNLAAATSTGGKTNKLPGRVGDSPLVGAGCYANNASVAVSCTGTGEVFIRALAAYDIAALMDYGGLSLAEACERVVMEKLPALGGSGGLIAIDHEGNVALPFNTEGMYRAWGYAGDTPTTGIYREKGDTVATQ	40

Note: attention shifts to another entry.
Memo: EcAIII (Escherichia coli K-12; M200L) (protein, untagged as described; EcAIII gene in pET11d, bacterial expression; precursor autoproteolytically matured to subunits alpha and beta from one gene, (alphabeta)2; purified by DEAE and SEC) chain 1: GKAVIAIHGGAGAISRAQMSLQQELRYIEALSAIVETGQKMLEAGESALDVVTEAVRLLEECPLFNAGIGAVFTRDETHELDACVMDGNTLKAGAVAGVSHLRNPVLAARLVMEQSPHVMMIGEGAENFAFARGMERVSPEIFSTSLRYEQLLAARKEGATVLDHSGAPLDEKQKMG chain 2: TVGAVALDLDGNLAAATSTGGLTNKLPGRVGDSPLVGAGCYANNASVAVSCTGTGEVFIRALAAYDIAALMDYGGLSLAEACERVVMEKLPALGGSGGLIAIDHEGNVALPFNTEGMYRAWGYAGDTPTTGIYREKGDTVATQ , reported Km: 37
